Reported pKd on Receptor-interacting serine/threonine-protein kinase 3 (Homo sapiens, UniProt Q9Y572) for assorted compounds, compiled from publications.
pKd: −log10 of the molar value.

The cases that follow already have their pKd on record.
>>> recorded_value("C[C@H](Oc1cc(-c2nn(C)c3c(-c4ccc5[nH]c(=O)n(C)c5c4)cnc(N)c23)ccc1NS(=O)(=O)C(F)F)c1ccc(F)cc1")
"< 5.00"
>>> recorded_value("COc1cnc(Nc2[nH]nc(-c3ccc(NS(=O)(=O)C(F)F)c(OCc4ccc(F)cc4)c3)c2C(N)=O)cn1")
"< 4.52"
>>> recorded_value("CCS(=O)(=O)Nc1ccc(-c2n[nH]c(Nc3cnccn3)c2C(N)=O)cc1OCc1ccc(OC(F)(F)F)cc1")
"< 4.52"
>>> recorded_value("COCC(Oc1cc(-c2nn(C)c3c(-c4cnn(C5CCN(C)CC5)c4)cnc(N)c23)ccc1NS(=O)(=O)C(F)F)c1ccc(F)cc1 (stereo not shown)")
"< 5.00"
>>> recorded_value("Cc1cnc(Nc2[nH]nc(-c3ccc(NS(=O)(=O)CC(F)(F)F)c(OCc4ccc(F)cc4)c3)c2C(N)=O)cn1")
"< 4.52"
>>> recorded_value("Cn1nc(-c2ccc(NS(=O)(=O)C(F)F)c(OCc3nccs3)c2)c2c(N)ncc(-c3cnn(C4CCOCC4)c3)c21")
"< 5.00"
>>> recorded_value("C[C@H](Oc1cc(-c2nn(C)c3c(-c4ccnc(C(F)F)c4)cnc(N)c23)ccc1NS(=O)(=O)C(F)F)c1ccc(F)cc1")
"< 5.00"
>>> recorded_value("NC(=O)c1c(-c2ccc(NS(=O)(=O)CCC(F)(F)F)c(OCc3ccc(F)cc3)c2)n[nH]c1Nc1cccc(C(F)(F)F)n1")
"< 4.52"

Entry C[C@H](Oc1cc(-c2nn(C)c3ccnc(N)c23)ccc1NS(=O)(=O)C(F)F)c1ccc(F)cc1 , tested on Receptor-interacting serine/threonine-protein kinase 3 (Homo sapiens, UniProt Q9Y572), has a reported pKd of < 5.00

Entry Cn1cc(-c2cnc(N)c3c(-c4ccc(NS(=O)(=O)C(F)F)c(OCc5ccc(F)cc5)c4)nn(C)c23)cn1 , tested on Receptor-interacting serine/threonine-protein kinase 3 (Homo sapiens, UniProt Q9Y572), has a reported pKd of < 5.00

---

pKd: −log10 of the molar value.
Reported pKd on Receptor-interacting serine/threonine-protein kinase 3 (Homo sapiens, UniProt Q9Y572) for assorted compounds, compiled from publications.

The cases that follow already have their pKd on record.
>>> recorded_value("C[C@H](Oc1cc(-c2nn(C)c3c(C4=CCOCC4)cnc(N)c23)ccc1NS(=O)(=O)C(F)F)c1ccc(F)cc1")
"< 5.00"
>>> recorded_value("C[C@H](Oc1cc(-c2nn(C)c3c(C#N)cnc(N)c23)ccc1NS(=O)(=O)C(F)F)c1ccc(F)cc1")
"< 5.00"
>>> recorded_value("CCS(=O)(=O)Nc1ccc(-c2n[nH]c(Nc3cnccn3)c2C(N)=O)cc1OCc1ccc(Cl)c(F)c1")
"< 4.52"
>>> recorded_value("CCS(=O)(=O)Nc1ccc(-c2n[nH]c(Nc3ccnc(C)n3)c2C(N)=O)cc1")
"< 4.52"
>>> recorded_value("Cc1ccc(-c2cnc(N)c3c(-c4ccc(NS(=O)(=O)C(F)F)c(O[C@@H](C)c5ccc(F)cc5)c4)nn(C)c23)cn1")
"< 5.00"
>>> recorded_value("C[C@H](Oc1cc(-c2nn(C)c3c(-c4cnn(C5(C#N)CC5)c4)cnc(N)c23)ccc1NS(=O)(=O)C(F)F)c1ccc(F)cc1")
"< 5.00"

# input for lookup
Entry CCS(=O)(=O)Nc1ccc(-c2n[nH]c(Nc3cccc(C(F)(F)F)n3)c2C(N)=O)cc1OCc1cccc(Cl)c1 , tested on Receptor-interacting serine/threonine-protein kinase 3 (Homo sapiens, UniProt Q9Y572), has a reported pKd of < 4.52
